Tested on: U-2932
assay_comment: growth inhibition by drug plus 177Lu-lilotomab satetraxetan (1 - RLU/untreated control) (fraction); higher = stronger inhibition
experimental_setup: 1000 nM; time (day): 4; 177Lu-lilotomab satetraxetan 1 ug/ml
measured_property: growth inhibition by drug plus 177Lu-lilotomab satetraxetan
Give the figure only, with no unit attached.

Quick check: growth inhibition by drug plus 177Lu-lilotomab satetraxetan of Cc1[nH]c(/C=C2\C(=O)Nc3ccc(S(=O)(=O)Cc4c(Cl)cccc4Cl)cc32)c(C)c1C(=O)N1CCC[C@@H]1CN1CCCC1 ?
-0.156

Entry to check: CCn1c(-c2nonc2N)nc2cnc(Oc3cccc(NC(=O)c4ccc(OCCN5CCOCC5)cc4)c3)cc21
0.292

Then Oc1ccc(Nc2nc(-c3ccc(Cl)cc3)cs2)cc1 ?
0.243

Would you mind doing Cc1ccc(C(=O)Nc2ccc(CN3CCN(C)CC3)c(C(F)(F)F)c2)cc1C#Cc1cnc2cccnn12 as well?
0.819

Thanks! And COc1cc(C(=O)NC(=S)Nc2cccc(NC(=O)c3ccccc3)c2)cc(OC)c1OC ?
0.0986

// next record CC[C@]1(O)C[C@@H]2CN(CCc3c([nH]c4ccccc34)[C@@](C(=O)OC)(c3cc4c(cc3OC)N(C)[C@H]3[C@@](O)(C(=O)OC)[C@H](OC(C)=O)[C@]5(CC)C=CCN6CC[C@]43[C@@H]65)C2)C1
0.973

Proceed to Nc1nc2[nH]cc(CCc3ccc(C(=O)N[C@@H](CCC(=O)O)C(=O)O)cc3)c2c(=O)[nH]1
0.951

And CN1C(=O)C(Cc2c[nH]c3ccccc23)NC1=S (centres undefined) ?
0.00685

One more compound: O=c1cc(-c2cccc3c2Sc2ccccc2S3)oc(N2CCOCC2)c1
-0.0389

* * *

System: RIVA
assay_comment: growth inhibition by drug alone (1 - RLU/untreated control) (fraction); higher = stronger inhibition
experimental_setup: 100 nM; time (day): 5; 177Lu-lilotomab satetraxetan 0 ug/ml
Counter-ions that a name gives are not always drawn.
measured_property: growth inhibition by drug alone

Endpoint output: growth inhibition by drug alone of OC[C@H]1O[C@@H](n2cnc3c2N=CNC[C@H]3O)C[C@@H]1O . Value?
-0.314

What about CCCCCCCCc1ccc(CCC(N)(CO)CO)cc1 ?
-0.129

Query C[C@@H](O[C@H]1OCCN(Cc2n[nH]c(=O)[nH]2)[C@H]1c1ccc(F)cc1)c1cc(C(F)(F)F)cc(C(F)(F)F)c1 [Aprepitant (MK-0869)] next
-0.277

Same question, CCc1cc(Nc2nccc(-c3c(-c4ccc(OC)c(C(=O)Nc5c(F)cccc5F)c4)nc4ccccn34)n2)c(OC)cc1N1CCC(N2CCN(S(C)(=O)=O)CC2)CC1 this time
0.0473

And the next one, O=C(O)C1(C(=O)O)CCC1.[NH2-].[NH2-].[Pt+2] ?
-0.182

Also O=C(CCCCCCC(=O)Nc1ccccc1)NO [Vorinostat (SAHA)] , if possible.
-0.199

Now this one: COc1cc2ncnc(Nc3ccc(F)c(Cl)c3)c2cc1OCCCN1CCOCC1
-0.334

Let us now turn to CCC(C)n1ncn(-c2ccc(N3CCN(c4ccc(OCC5COC(Cn6cncn6)(c6ccc(Cl)cc6Cl)O5)cc4)CC3)cc2)c1=O (stereo unspecified) [Itraconazole (Sporanox)]
0.00541

Please give the result for C=CC(=O)Nc1cccc(Oc2nc(Nc3ccc(N4CCN(C)CC4)cc3OC)ncc2Cl)c1 too.
-0.251

What do we get for CN(C)C[C@@H]1CCn2cc(c3ccccc32)C2=C(C(=O)NC2=O)c2cn(c3ccccc23)CCO1 ?
0.0496

Ok, now CC(=O)c1c(C)c2cnc(Nc3ccc(N4CCNCC4)cn3)nc2n(C2CCCC2)c1=O
-0.138

Follow-up entry: C[C@]12CC[C@@H]3c4ccc(O)cc4CC[C@H]3[C@@H]1CCC2=O
-0.323

Repeat with N#CCNC(=O)c1ccc(-c2ccnc(Nc3ccc(N4CCOCC4)cc3)n2)cc1
-0.416

Same question for COc1ccc(COc2cc3oc(=O)c4cc(C(C)O)ccc4c3cc2OC)cc1 (stereo unspecified) please.
-0.0557

Further, for Cc1cccc(-c2[nH]c(C(C)(C)C)nc2-c2ccc3nccnc3c2)n1 ?
-0.32

Same again, this time with COc1cc(Nc2ncc3c(n2)-c2ccc(Cl)cc2C(c2c(F)cccc2OC)=NC3)ccc1C(=O)O
0.569

Then this compound: O=C(NC1CCNCC1)c1n[nH]cc1NC(=O)c1c(Cl)cccc1Cl
-0.185

Subsequent entry: COC(=O)Nc1nc2cc(C(=O)c3cccs3)ccc2[nH]1
0.957

Note, next up: CC/C(=C(\c1ccccc1)c1ccc(OCCN(C)C)cc1)c1ccccc1 [Tamoxifen Citrate (Nolvadex)]
0.352

Note, next up: CC[C@]1(O)C[C@@H]2CN(CCc3c([nH]c4ccccc34)[C@@](C(=O)OC)(c3cc4c(cc3OC)N(C)[C@H]3[C@@](O)(C(=O)OC)[C@H](OC(C)=O)[C@]5(CC)C=CCN6CC[C@]43[C@@H]65)C2)C1
0.393

Moving on to the next compound: Cc1[nH]c(/C=C2\C(=O)Nc3ccc(S(=O)(=O)N(C)c4cccc(Cl)c4)cc32)c(C)c1C(=O)N1CCN(C)CC1
-0.286

Now the same for CN(C)CCCN=c1c2ccccc2n(C)c2[nH]c(=O)n(C)c(=O)c12
-0.079

Do the same for CC(C)[C@H](C(=O)Nc1ccc(C(=O)NO)cc1)c1ccccc1 please
0.897

For CN1CCC(CNc2ccc3ncc(-c4cccc(OC(F)(F)F)c4)n3n2)CC1 [SGI-1776 free base] then?
-0.351

What do you get for Nc1nc(Nc2ccc(S(N)(=O)=O)cc2)nn1C(=O)c1c(F)cccc1F ?
-0.0832

Quick one: CN1CCN(c2cccc(Nc3nc4c(-c5ccc(S(C)(=O)=O)cc5)cccn4n3)c2)CC1
-0.0675

Further, for Cc1nn(-c2ccccc2)c(C)c1C=NN1CCN(Cc2ccccc2)CC1 ?
-0.201

// next record CC[C@@H]1/C=C(\C)C[C@H](C)C[C@H](OC)[C@H]2O[C@@](O)(C(=O)C(=O)N3CCCC[C@H]3C(=O)O[C@H](/C(C)=C/[C@@H]3CC[C@H](Cl)[C@H](OC)C3)[C@H](C)[C@@H](O)CC1=O)[C@H](C)C[C@@H]2OC
0.534

Try this compound too: c1ccc(-c2nn3c(c2-c2ccnc4cc(OCCN5CCOCC5)ccc24)CCC3)nc1
-0.3

Also need COc1nc(-c2ccc3c(c2)OCO3)n(-c2ccc(NC(=O)CSc3ccccc3)cc2)n1 , thanks.
-0.334

Next compound up: CC1(C)CCC(c2ccc(Cl)cc2)=C(CN2CCN(c3ccc(C(=O)NS(=O)(=O)c4ccc(N[C@H](CCN5CCOCC5)CSc5ccccc5)c(S(=O)(=O)C(F)(F)F)c4)cc3)CC2)C1
0.975
